System: pERK level in H358 cells
protocol.text: pERK and ERK protein content assay in H358 cells (ELISA)
Assay type: cell-based
stated.conditions: Homo sapiens, NCI-H358, compound 1 μM, 24 h, pERK/ERK ratio compared with DMSO group, read-out: Inhibition rate (%) of pERK level
test.readout: inhibition at 1 µM

[[record]]
molecule_smiles = "C=CC(=O)N1CC2(C1)CN(c1nc(OC3CCN(CCOC)CC3)nc3c(OCC(F)(F)F)c(-c4c(C)ccc5[nH]ncc45)c(C4CC4)cc13)C2"
val = "50 to 90%"

[[record]]
molecule_smiles = "C=C(C)C(=O)N1CC2(CCN(c3nc(OC4CCN(CCOC)CC4)nc4c(OCC(F)(F)F)c(-c5c(C)ccc6[nH]ncc56)c(C5CC5)cc34)CC2)C1"
val = "> 90%"

[[record]]
molecule_smiles = "C=CC(=O)N1CC2(CCN(c3nc(N4CC(N5CC(OCC)C5)C4)nc4c(OCC(F)(F)F)c(-c5c(C)ccc6[nH]ncc56)c(C5CC5)cc34)CC2)C1"
val = "50 to 90%"


====

The entries below are paired with their reported F.
protocol.text: Pharmacokinetic evaluation in mice
Type: in vivo, male ICR mice
stated.conditions: po 10 mg/kg vs iv 2 mg/kg
test.readout: F (%)

[[record]]
molecule_smiles = "C=CC(=O)N1CC2(CCN(c3nc(N4CC(N5CCCC5)C4)nc4c(OCC(F)(F)F)c(-c5c(C)ccc6[nH]ncc56)c(C5CC5)cc34)CC2)C1"
val = 26.9

[[record]]
molecule_smiles = "C=CC(=O)N1CC2(CCN(c3nc(OC4CC5(CCN(CCOC)CC5)C4)nc4c(OCC(F)(F)F)c(-c5c(C)ccc6[nH]ncc56)c(C5CC5)cc34)CC2)C1"
val = 39.4

[[record]]
molecule_smiles = "C=CC(=O)N1CC2(CCN(c3nc(N4CC(N5CCC5)C4)nc4c(OCC(F)(F)F)c(-c5c(C)ccc6[nH]ncc56)c(C5CC5)cc34)CC2)C1"
val = 17.7


====

System: H358 cells
protocol.text: Antiproliferative activity against H358 cells (Cell Titer Glow, ultra-low attachment plate)
Format: cell-based
stated.conditions: three days after addition of compound
pIC50: −log10 of the molar value.
test.readout: pIC50

[[record]]
compound = "C=CC(=O)N1CC2(CCN(c3nc(N4CC(N(C)C)C4)nc4c(OCC(F)(F)F)c(-c5c(C)ccc6[nH]ncc56)c(C=C)cc34)CC2)C1 [Compound C, reference compound]"
val = 8.29


====

# half-life values compiled below
protocol.text: Pharmacokinetic evaluation in mice
Format: in vivo, male ICR mice
stated.conditions: male, ICR, mouse, plasma, po, 10 mg/kg, 0.5% CMC-Na suspension
test.readout: half-life (h)

[[record]]
compound = "C=CC(=O)N1CC2(CCN(c3nc(N4CC(N5CCC5)C4)nc4c(OCC(F)(F)F)c(-c5c(C)ccc6[nH]ncc56)c(C5CC5)cc34)CC2)C1 [Compound 142]"
unit_symbol = "h"
val = 3.89

[[record]]
compound = "C=CC(=O)N1CC2(CCN(c3nc(OC4CC5(CCN(CCOC)CC5)C4)nc4c(OCC(F)(F)F)c(-c5c(C)ccc6[nH]ncc56)c(C5CC5)cc34)CC2)C1 [Compound 131]"
unit_symbol = "h"
val = 5.86

[[record]]
compound = "C=CC(=O)N1CC2(CCN(c3nc(OC4CCN(CCOC)CC4)nc4c(OCC(F)(F)F)c(-c5c(C)ccc6[nH]ncc56)c(C5CC5)cc34)CC2)C1 [B, reference compound]"
unit_symbol = "h"
val = 3.74

[[record]]
compound = "C=CC(=O)N1CC2(CCN(c3nc(N4CC(N5CCCC5)C4)nc4c(OCC(F)(F)F)c(-c5c(C)ccc6[nH]ncc56)c(C5CC5)cc34)CC2)C1 [Compound 171]"
unit_symbol = "h"
val = 3.93


====

Test system: pERK level in H358 cells
protocol.text: pERK and ERK protein content assay in H358 cells (ELISA)
Format: cell-based
stated.conditions: Homo sapiens, NCI-H358, compound 1 μM, 24 h, pERK/ERK ratio compared with DMSO group, read-out: Inhibition rate (%) of pERK level
test.readout: inhibition at 1 µM

[[record]]
compound = "C=CC(=O)N1CC2(CCN(c3nc(N4CC(N5CCC(C)(C)CC5)C4)nc4c(OCC(F)(F)F)c(-c5c(C)ccc6[nH]ncc56)c(C5CC5)cc34)CC2)C1 [Compound 269]"
tested_target = "pERK level in H358 cells"
test_readout = "inhibition at 1 µM"
val = "> 90%"

[[record]]
compound = "C=C(F)C(=O)N1CC2(CCN(c3nc(OC4CC5(CCN(C(C)CC)CC5)C4)nc4c(OCC(F)(F)F)c(-c5c(C)ccc6[nH]ncc56)c(C5CC5)cc34)CC2)C1 (centres unmarked) [Compound 134]"
tested_target = "pERK level in H358 cells"
test_readout = "inhibition at 1 µM"
val = "> 90%"

[[record]]
compound = "C=CC(=O)N1CC2(CCN(c3nc(N4CC[C@@H](N(CC)CC)C4)nc4c(OCC(F)(F)F)c(-c5c(C)ccc6[nH]ncc56)c(C5CC5)cc34)CC2)C1 [Compound 190]"
tested_target = "pERK level in H358 cells"
test_readout = "inhibition at 1 µM"
val = "> 90%"

[[record]]
compound = "C=CC(=O)N1CC2(CCN(c3nc(N4CC5(CCN(C)CC5)C4)nc4c(OCC(F)(F)F)c(-c5c(C)ccc6[nH]ncc56)c(C5CC5)cc34)CC2)C1 [Compound 77]"
tested_target = "pERK level in H358 cells"
test_readout = "inhibition at 1 µM"
val = "50 to 90%"

[[record]]
compound = "C=C(F)C(=O)N1CC2(CCN(c3nc(OC4CCN(CCCOC)CC4)nc4c(OCC(F)(F)F)c(-c5c(C)ccc6[nH]ncc56)c(C5CC5)cc34)CC2)C1 [Compound 63]"
tested_target = "pERK level in H358 cells"
test_readout = "inhibition at 1 µM"
val = "> 90%"


====

protocol.text: Pharmacokinetic evaluation in mice
Format: in vivo, male ICR mice
stated.conditions: male, ICR, mouse, plasma, iv, 2 mg/kg, read-out: Cmax
Catalogue of molecules with associated Cmax
test.readout: Cmax

[[record]]
molecule = "C=CC(=O)N1CC2(CCN(c3nc(N4CC(N5CCC5)C4)nc4c(OCC(F)(F)F)c(-c5c(C)ccc6[nH]ncc56)c(C5CC5)cc34)CC2)C1 [Compound 142]"
val = "13.1 µg/mL"

[[record]]
molecule = "C=CC(=O)N1CC2(CCN(c3nc(OC4CCN(CCOC)CC4)nc4c(OCC(F)(F)F)c(-c5c(C)ccc6[nH]ncc56)c(C5CC5)cc34)CC2)C1 [B, reference compound]"
val = "2.88 µg/mL"

[[record]]
molecule = "C=CC(=O)N1CC2(CCN(c3nc(OC4CC5(CCN(CCOC)CC5)C4)nc4c(OCC(F)(F)F)c(-c5c(C)ccc6[nH]ncc56)c(C5CC5)cc34)CC2)C1 [Compound 131]"
val = "2.35 µg/mL"

[[record]]
molecule = "C=CC(=O)N1CC2(CCN(c3nc(N4CC(N5CCCC5)C4)nc4c(OCC(F)(F)F)c(-c5c(C)ccc6[nH]ncc56)c(C5CC5)cc34)CC2)C1 [Compound 171]"
val = "4.91 µg/mL"


====

System: pERK level in H358 cells
protocol.text: pERK and ERK protein content assay in H358 cells (ELISA)
Type: cell-based
stated.conditions: Homo sapiens, NCI-H358, compound 1 μM, 24 h, pERK/ERK ratio compared with DMSO group, read-out: Inhibition rate (%) of pERK level
test.readout: inhibition at 1 µM

[[record]]
molecule = "C=C(F)C(=O)N1CC2(CCN(c3nc(OC4CCC5(CC4)CN(C)C5)nc4c(OCC(F)(F)F)c(-c5c(C)ccc6[nH]ncc56)c(C5CC5)cc34)CC2)C1 [Compound 136]"
val = "50 to 90%"

[[record]]
molecule = "C=CC(=O)N1CC2(CCN(c3nc(N4CC(N5CC(F)(F)C5)C4)nc4c(OCC(F)(F)F)c(-c5c(C)ccc6[nH]ncc56)c(C5CC5)cc34)CC2)C1 [Compound 169]"
val = "50 to 90%"

[[record]]
molecule = "C=CC(=O)N1CC2(CCN(c3nc(OC4CCN(CCOC)CC4)nc4c(N5CCC5)c(-c5c(C)ccc6[nH]ncc56)c(C5CC5)cc34)CC2)C1 [Compound 8]"
val = "50 to 90%"

[[record]]
molecule = "C=CC(=O)N1CC2(CCN(c3nc(OC4CCN(CCOC)CC4)nc4c(OCC(F)(F)F)c(-c5c(C)ccc6[nH]ncc56)c(CC)cc34)CC2)C1 [Compound 14]"
val = "> 90%"

[[record]]
molecule = "C=C(F)C(=O)N1CC2(CCN(c3nc(N4CC5(CCN(C6CC6)CC5)C4)nc4c(OCC(F)(F)F)c(-c5c(C)ccc6[nH]ncc56)c(C5CC5)cc34)CC2)C1 [Compound 80]"
val = "50 to 90%"

[[record]]
molecule = "C=CC(=O)N1CC2(CCN(c3nc(N4CC5(C4)[C@H](F)CCN5C)nc4c(OCC(F)(F)F)c(-c5c(C)ccc6[nH]ncc56)c(C5CC5)cc34)CC2)C1 [Compound 274]"
val = "> 90%"

